B1: PhoQ; a variant is named by its letters at X, in order, P23837 (parent)
chain: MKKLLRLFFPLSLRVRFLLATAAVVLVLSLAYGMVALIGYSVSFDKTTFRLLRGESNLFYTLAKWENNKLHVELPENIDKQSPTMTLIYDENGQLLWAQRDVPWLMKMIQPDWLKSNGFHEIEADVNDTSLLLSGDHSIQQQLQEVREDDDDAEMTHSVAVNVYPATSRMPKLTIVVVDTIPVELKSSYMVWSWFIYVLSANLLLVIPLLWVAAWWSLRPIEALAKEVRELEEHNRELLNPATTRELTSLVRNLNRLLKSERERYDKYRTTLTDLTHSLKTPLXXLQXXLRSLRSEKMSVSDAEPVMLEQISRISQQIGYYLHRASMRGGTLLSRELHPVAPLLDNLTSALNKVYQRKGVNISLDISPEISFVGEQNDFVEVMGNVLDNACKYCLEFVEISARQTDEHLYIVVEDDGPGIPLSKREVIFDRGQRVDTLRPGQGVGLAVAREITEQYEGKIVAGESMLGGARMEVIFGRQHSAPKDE

# Variants of: B1
# procedureDetails: enrichment ratio after two sorts for PhoP signalling (ratio (wild type AVST 3.29)); higher = more functional
# measurementConditions: with PhoP (E. coli)
The full ranking holds about 140,000 sequences; the median of “enrichment ratio after two sorts for PhoP signalling” is about 0, and the highest 2% start at about 11. For the sample, the highest values were picked, then their nearest neighbours and some sequences at random.
enrichment ratio overview
readoutKind: enrichment ratio

> print(dat)
   mutationname   value
1          WGSE  ≤ 0.25
2          SWLN  ≤ 0.25
3          TEPM  ≤ 0.25
4          SCNT  ≤ 0.25
5          METE  ≤ 0.25
6          SYKQ  ≤ 0.25
